Below, each entry is listed alongside its reported ratio of amounts bound (vs GLS3000).
Molecular target: CD3ε homodimer protein (human, UniProt P07766 23-126, limits assumed)
Sequence (P07766 23-126 limits assumed): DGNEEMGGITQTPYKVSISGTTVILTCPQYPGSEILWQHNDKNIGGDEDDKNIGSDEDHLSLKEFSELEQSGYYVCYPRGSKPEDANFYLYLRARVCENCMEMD
Assay: SPR, immobilized CD3ε homodimer;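 note: biacore T200 surface plasmon resonance at 25 °C, antibody variants flowed as analytes over amine-coupled CD3ε homodimer on a CM4 chip, variant binding amount divided by that of GLS3000 antibody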
Respond using a number only.

Measured ratio of amounts bound (vs GLS3000) of GLS3000 S27eL (antibody, name in Kabat numbering, V domains shown, one-arm format as m2) VH: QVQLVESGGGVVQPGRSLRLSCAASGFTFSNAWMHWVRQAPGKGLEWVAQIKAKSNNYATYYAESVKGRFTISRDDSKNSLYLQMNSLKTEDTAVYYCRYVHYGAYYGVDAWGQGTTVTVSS VL: DIVMTQSPLSLPVTPGEPASISCRSSQSLVHLNRNTYLHWYQQKPGQAPRLLIYKVSNRFSGVPDRFSGSGSGTDFTLKISRVEAEDVGVYYCGQGTQVPYTFGQGTKLEIK : 1.17

Memo: GLS3000 S27eN (antibody, name in Kabat numbering, V domains shown, one-arm format as m2) VH: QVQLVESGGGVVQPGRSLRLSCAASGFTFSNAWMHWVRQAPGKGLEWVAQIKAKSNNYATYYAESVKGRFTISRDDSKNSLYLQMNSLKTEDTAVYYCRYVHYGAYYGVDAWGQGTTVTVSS VL: DIVMTQSPLSLPVTPGEPASISCRSSQSLVHNNRNTYLHWYQQKPGQAPRLLIYKVSNRFSGVPDRFSGSGSGTDFTLKISRVEAEDVGVYYCGQGTQVPYTFGQGTKLEIK , reported ratio of amounts bound (vs GLS3000): 1.16
